test system: ICS; assay: qHTS profiling for inhibitors of Plasmodium falciparum proliferation (AID 504749); further: nearly all actives have a fitted effect of over 60% in size; conditions: P. falciparum in erythrocytes, SYBR Green DNA, 72 h; series mostly up to 28.7 µM
Inconclusive results are not listed. Calls of active or inactive are those of the source. The call rests on the fitted dose curve; in most records, active means well fitted inhibition curve with a large enough effect; inconclusive means small, poorly fitted or top-dose-only effect; inactive means flat fitted curve, though single readings scatter.
Outcomes: True = active, False = inactive

{"compound": "CCN(CC)Cc1cc(Nc2ccnc3cc(Cl)ccc23)ccc1O", "class name": "True"}
{"compound": "CCCC(=O)O[C@]1(C(=O)CCl)[C@H](C)C[C@@H]2[C@H]3CCC4=CC(=O)C=C[C@]4(C)[C@@]3(F)C(=O)C[C@@]21C", "class name": "True"}
{"compound": "Nc1c(N=Nc2ccc(-c3ccc(N=Nc4cc(S(=O)(=O)O)c5ccccc5c4N)cc3)cc2)cc(S(=O)(=O)O)c2ccccc12", "class name": "False"}
{"compound": "Cc1c(C)c2c(c(C)c1O)CC[C@@](C)(CCC[C@@H](C)CCC[C@@H](C)CCCC(C)C)O2", "class name": "False"}
{"compound": "C[C@]12O[C@H](C[C@]1(O)CO)n1c3ccccc3c3c4c(c5c6ccccc6n2c5c31)CNC4=O", "class name": "True"}
{"compound": "O=S(=O)(O)c1ccc2c(N=Nc3ccc(S(=O)(=O)O)c4ccccc34)c(O)c(S(=O)(=O)O)cc2c1", "class name": "False"}
{"compound": "CC1=CCC(C(C)(C)O)CC1 (configuration not stated)", "class name": "False"}
{"compound": "CC(C)N=c1cc2n(-c3ccc(Cl)cc3)c3ccccc3nc-2cc1Nc1ccc(Cl)cc1", "class name": "True"}
{"compound": "CCCCCCC(O)C/C=C/CCCCCCCC(=O)O (configuration not stated)", "class name": "False"}
{"compound": "CC(O)CO (configuration not stated)", "class name": "False"}
{"compound": "COC(=O)CCC(=O)CN", "class name": "False"}
{"compound": "C[C@@H]1CCC2[C@@H](C)[C@@H](O)O[C@@H]3O[C@@]4(C)CC[C@@H]1[C@@]23OO4 (some centres not stated)", "class name": "True"}

###

biological target: Luciferin 4-monooxygenase (Photinus pyralis) (UniProt P08659); assay: Primary firefly luciferase (FLuc) qHTS assay for identification of artifact compounds. (AID 1845220); settings: purified firefly luciferase, luminescence, 5 min; series mostly up to 54.1 µM; further: nearly all actives have a fitted effect of over 60% in size;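 on activity change, negative = inhibition: plate controls were DMSO vehicle for no effect and no enzyme for full effect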
Activity calls are given as the source filed them. The call rests on the fitted dose curve; in most records, active means well fitted inhibition curve with a large enough effect; inconclusive means small, poorly fitted or top-dose-only effect; inactive means flat fitted curve, though single readings scatter.

{"molecule": "CC1(CO)CC[C@]2(C(=O)O[C@@H]3O[C@H](CO)[C@@H](O)[C@H](O)[C@H]3O)CC[C@]3(C)C(=CCC4[C@@]5(C)C[C@H](O)[C@H](O[C@@H]6OC[C@@H](O)[C@H](O)[C@H]6O)[C@@](C)(CO)C5CC[C@]43C)C2C1 (stereo partly drawn)", "activity change, negative = inhibition": "4.3% [at 11.6 µM] (inactive)"}
{"molecule": "CC1(C)CC2C(O)C3=C(CC(C)(O)C2C1)C(=O)OC3O (stereo not drawn)", "activity change, negative = inhibition": "inactive"}
{"molecule": "Nc1ncnc2c1ncn2[C@H]1CCCO1", "activity change, negative = inhibition": "inactive"}
{"molecule": "CC(=O)O[C@@H]1[C@H](O[C@@H]2OC[C@](O)(CO)[C@H]2O)[C@@H](O[C@@H]2O[C@@H](C)[C@H](O)[C@@H](O)[C@H]2O)[C@H](OC(=O)[C@]23CCC(C)(C)C[C@H]2C2=CCC4[C@@]5(C)C[C@H](O)[C@H](O[C@@H]6O[C@H](C(=O)O)[C@@H](O)[C@H](O)[C@H]6O)[C@@](C)(C(=O)O)C5CC[C@@]4(C)[C@]2(C)CC3)O[C@@H]1C (stereo partly drawn)", "activity change, negative = inhibition": "3.99% [at 11.6 µM] (inactive)"}
{"molecule": "C/C(=C\\CCC(C(=O)O)C1CCC2(C)C3=C(CCC12C)C1(C)CCC(=O)C(C)(C)C1CC3)C(=O)O (stereo not drawn)", "activity change, negative = inhibition": "inactive"}
{"molecule": "COc1cc(C(=O)OC[C@H]2O[C@H](O[C@@]3(CO)O[C@@H](CO)[C@H](O)[C@H]3O)[C@H](O)[C@@H](O)[C@@H]2O)ccc1O", "activity change, negative = inhibition": "inactive"}
{"molecule": "Clc1ccc(CN[C@H]2CCN(c3ncc(Br)cn3)C2)c(Cl)c1", "activity change, negative = inhibition": "inactive"}
{"molecule": "Cc1coc2c1CC1OC1(C)CCC1OC1(C)C2 (stereo not drawn)", "activity change, negative = inhibition": "inactive"}
{"molecule": "CC(=O)OCC1=C[C@H](O)[C@@H]2C(C(=O)O)=CO[C@@H](O[C@@H]3O[C@H](CO)[C@@H](O)[C@H](O)[C@H]3O)[C@H]12", "activity change, negative = inhibition": "inactive"}
{"molecule": "CC1(C)CC[C@]2(C(=O)O)CC[C@]3(C)C(=CCC4[C@@]5(C)CC[C@H](O[C@@H]6O[C@H](C(=O)O)[C@@H](O)[C@H](O)[C@H]6O)C(C)(CO)C5CC[C@]43C)C2C1 (stereo partly drawn)", "activity change, negative = inhibition": "inactive"}
{"molecule": "CC(C)=CCC[C@](C)(O[C@@H]1O[C@H](CO[C@@H]2OC[C@@H](O)[C@H](O)[C@H]2O)[C@@H](O)[C@H](O)[C@H]1O)[C@H]1CC[C@]2(C)[C@@H]1[C@H](O)C[C@@H]1[C@@]3(C)CC[C@H](O[C@@H]4O[C@H](CO)[C@@H](O)[C@H](O)[C@H]4O[C@@H]4O[C@H](CO)[C@@H](O)[C@H](O)[C@H]4O)C(C)(C)[C@@H]3CC[C@]12C", "activity change, negative = inhibition": "inactive"}
{"molecule": "CC1(C)CC[C@]2(C(=O)O[C@@H]3O[C@H](CO)[C@@H](O)[C@H](O)[C@H]3O)CC[C@]3(C)C(=CCC4[C@@]5(C)C[C@@H](O)[C@H](O)C(CO)(CO)C5CC[C@]43C)C2[C@@H]1O (stereo partly drawn)", "activity change, negative = inhibition": "inactive"}
{"molecule": "C/C=C/C1=CC2=CC(=O)C(C)(O)C(OC(=O)c3c(C)cc(O)cc3O)C2CO1 (stereo not drawn)", "activity change, negative = inhibition": "inactive"}
{"molecule": "CC1(C)CCC(C)(C)c2cc([C@@H](O)C(=O)Nc3ccc(C(=O)O)cc3F)ccc21", "activity change, negative = inhibition": "inactive"}
{"molecule": "O=C(O[C@@H]1O[C@H](CO)[C@@H](O)[C@H](O)[C@H]1O)c1c(O)cc(O)cc1/C=C/c1ccccc1", "activity change, negative = inhibition": "inactive"}
{"molecule": "NCCCC[C@H](NC(=O)[C@@H]1Cc2ccccc2CN1C(=O)CCC(=O)c1ccccc1)C(=O)NCC(c1ccccc1)c1ccccc1", "activity change, negative = inhibition": "inactive"}
{"molecule": "CC1CCC2C(C(=O)O)=CC3C(O)C(C)(C)CC123 (stereo not drawn)", "activity change, negative = inhibition": "inactive"}
{"molecule": "CCNC(=O)CCC/C=C\\C[C@@H]1[C@@H](/C=C/C(O)CCc2ccccc2)[C@@H](O)C[C@@H]1O (stereo partly drawn)", "activity change, negative = inhibition": "inactive"}
{"molecule": "CCC[C@@H]1C[C@@H](C(=O)N[C@H](C(C)Cl)[C@H]2O[C@H](SC)[C@H](O)[C@@H](O)[C@H]2O)N(C)C1 (stereo partly drawn)", "activity change, negative = inhibition": "inactive"}
{"molecule": "C/C=C(\\C)C(=O)O[C@@H]1CC2[C@@H](CC=C3C[C@@H](O[C@H]4C[C@H](OC)[C@H](O[C@H]5C[C@H](OC)[C@H](O[C@H]6C[C@H](OC)[C@H](O[C@H]7C[C@@H](OC)[C@H](O[C@@H]8O[C@H](CO)[C@@H](O)[C@H](O)[C@H]8O)[C@@H](C)O7)[C@@H](C)O6)[C@@H](C)O5)[C@@H](C)O4)CC[C@@]32C)[C@@]2(O)CC[C@H](C(C)=O)[C@@]12C (stereo partly drawn)", "activity change, negative = inhibition": "2.2% [at 11.6 µM] (inactive)"}
{"molecule": "C[C@@H]1O[C@@H](O[C@H]2[C@H](OC(=O)C34CCC5(C)C(=CCC6C7(C)CC(O)C(O[C@@H]8O[C@H](C(=O)O)[C@@H](O)[C@H](O)[C@H]8O)C(C)(C(=O)O)C7CCC65C)C3CC(C)(C)CC4O)O[C@H](C)[C@@H](O)[C@@H]2O)[C@H](O)[C@@H](O[C@@H]2OC[C@](O)(CO)[C@H]2O[C@@H]2O[C@H](CO)[C@@H](O)[C@H](O)[C@H]2O)[C@H]1O (stereo partly drawn)", "activity change, negative = inhibition": "-0.148% [at 11.6 µM] (inactive)"}
{"molecule": "O=C(NC[C@H](O)CN1CCc2ccccc2C1)c1cc(NC2COC2)ncn1", "activity change, negative = inhibition": "inactive"}
{"molecule": "C1CCN2CC3C[C@@H](CN4CCCC[C@@H]34)[C@H]2C1", "activity change, negative = inhibition": "inactive"}
